All figures here come from patent US10167262B2.

Tested on: velvetleaf (Abutilon theophrasti)
Assay: Test A pre-/postemergence greenhouse herbicide test, visual injury rating 0-100
Type: in vivo
Conditions: Preemergence, 125 g ai/ha
For each record, write down the corresponding Velvetleaf plant response rating (0 = no effect, 100 = complete control).

>>> result_value("CCOC(OCC)(c1cccs1)c1c[nH]nc1-c1cc(Cl)cc(Cl)c1 [Compound 27]")
80

# per-item lookup of Velvetleaf plant response rating (0 = no effect, 100 = complete control); items listed below
1. O=C(c1cncc(F)c1)c1c[nH]nc1-c1cc(F)cc(F)c1 [Compound 23]
2. O=C(c1ccccc1)c1cn(S(=O)(=O)C(F)(F)F)nc1-c1cc(Cl)cc(Cl)c1 [Compound 2]
3. O=C(c1ccccc1)c1cn(S(=O)(=O)CC(F)(F)F)nc1-c1cc(Cl)cc(Cl)c1 [Compound 3]
4. ON=C(c1cccnc1)c1c[nH]nc1-c1cc(Cl)cc(Cl)c1 [Compound 5]

Result:
[60, 20, 0, 0]

# per-item lookup of Velvetleaf plant response rating (0 = no effect, 100 = complete control); items listed below
1. CCCn1cc(C(=O)c2ccccc2)c(-c2cc(Cl)cc(Cl)c2)n1 [Compound 61]
2. CCn1cc(C(=O)c2cccnc2)c(-c2cc(Cl)cc(Cl)c2)n1 [Compound 7]
3. CON=C(c1cccs1)c1c[nH]nc1-c1cc(Cl)cc(Cl)c1 [Compound 32]

Result:
0
0
0

# per-item lookup of Velvetleaf plant response rating (0 = no effect, 100 = complete control); items listed below
1. Cn1cc(C(=O)c2ccccc2)c(-c2cc(Cl)cc(Cl)c2)n1 [Compound 54]
2. CCn1cc(C(=NNc2ccccc2)c2ccccc2)c(-c2cc(Cl)cc(Cl)c2)n1 [Compound 36]
3. O=C(c1ccccc1)c1cn(CC2CC2)nc1-c1cc(Cl)cc(Cl)c1 [Compound 41]

Result:
30
20
0

# per-item lookup of Velvetleaf plant response rating (0 = no effect, 100 = complete control); items listed below
1. O=C(c1ccccc1)c1cn(S(=O)(=O)CCl)nc1-c1cc(Cl)cc(Cl)c1 [Compound 1]
2. O=Cn1cc(C(=O)c2ccccc2)c(-c2cc(Cl)cc(Cl)c2)n1 [Compound 28]
3. O=C(c1ccccc1)c1cn(CC(F)F)nc1-c1cc(Cl)cc(Cl)c1 [Compound 59]
4. COCC(=O)n1cc(C(=O)c2ccccc2)c(-c2cc(Cl)cc(Cl)c2)n1 [Compound 16]
5. C#CCn1cc(C(=O)c2cccnc2)c(-c2cc(Cl)cc(Cl)c2)n1 [Compound 9]

Result:
[20, 20, 0, 20, 0]

====

Tested on: velvetleaf (Abutilon theophrasti)
Assay: Test E pre-/postemergence greenhouse test, plant response rating 0-100
Format: in vivo
Conditions: Preemergence, 62 g ai/ha, scale 0 to 100
Readout Name: Velvetleaf plant response rating
One number for each entry.

>>> result_value("CCn1cc(C(=O)c2ccccc2)c(-c2cc(Cl)cc(Cl)c2)n1 [Compound 31]")
65
>>> result_value("O=C(c1ccccc1)c1cn(S(=O)(=O)CCl)nc1-c1cc(Cl)cc(Cl)c1 [Compound 1]")
40
>>> result_value("O=C(c1ccccc1)c1cn(S(=O)(=O)C(F)(F)F)nc1-c1cc(Cl)cc(Cl)c1 [Compound 2]")
0

Q: Tell me the measured Velvetleaf plant response rating of COCC(=O)n1cc(C(=O)c2ccccc2)c(-c2cc(Cl)cc(Cl)c2)n1 [Compound 16] , please.
Result: 40

====

For each record, write down the corresponding Plant response rating, Waterhemp.
Tested on: waterhemp (common waterhemp, Amaranthus rudis)
Assay: Test C pre-/postemergence greenhouse test, plant response rating 0-100
Type: in vivo
Details: Preemergence, 250 g ai/ha
Give bare numbers.

// below: answered compounds
>>> result_value("O=Cn1cc(C(=O)c2ccccc2)c(-c2cc(Cl)cc(Cl)c2)n1 [Compound 28]")
100
>>> result_value("COCC(=O)n1cc(C(=O)c2ccccc2)c(-c2cc(Cl)cc(Cl)c2)n1 [Compound 16]")
100
>>> result_value("Cn1cc(C(=O)c2ccccc2)c(-c2cc(Cl)cc(Cl)c2)n1 [Compound 54]")
98

# input for lookup
Q: Tell me the measured Plant response rating, Waterhemp of CCOC(OCC)(c1cccs1)c1c[nH]nc1-c1cc(Cl)cc(Cl)c1 [Compound 27] , please.
Result: 100

====

Test system: velvetleaf (Abutilon theophrasti)
Assay: Test C pre-/postemergence greenhouse test, plant response rating 0-100
Type: in vivo
Details: Postemergence, 250 g ai/ha; scale 0 to 100
Readout Name: Plant response rating, Velvetleaf
One number for each entry.

>>> result_value("Cn1cc(C(=NN2CCCC2)c2ccccc2)c(-c2cc(Cl)c(Cl)c(Cl)c2)n1 [Compound 25]")
70
>>> result_value("CCOC(OCC)(c1cccs1)c1c[nH]nc1-c1cc(Cl)cc(Cl)c1 [Compound 27]")
75
>>> result_value("Fc1ccc(NN=C(c2ccccc2)c2c[nH]nc2-c2cc(Cl)cc(Cl)c2)cc1 [Compound 35]")
70

# per-item lookup of Plant response rating, Velvetleaf; items listed below
1. O=C(c1ccccc1)c1cn(S(=O)(=O)CC(F)(F)F)nc1-c1cc(Cl)cc(Cl)c1 [Compound 3]
2. Fc1cccc(NN=C(c2ccccc2)c2c[nH]nc2-c2cc(Cl)cc(Cl)c2)c1 [Compound 58]

Result:
[75, 70]

====

Tested on: velvetleaf (Abutilon theophrasti)
Assay: Test A pre-/postemergence greenhouse herbicide test, visual injury rating 0-100
Type: in vivo
Settings: Postemergence, 125 g ai/ha
For each record, write down the corresponding Plant response rating (0 to 100 scale), Velvetleaf.
Give bare numbers.

// below: answered molecules
>>> result_value("CCn1cc(C(=O)c2cccnc2)c(-c2cc(Cl)cc(Cl)c2)n1")
50
>>> result_value("CCn1cc(C(=NN2CCCC2)c2ccccc2)c(-c2cc(Cl)cc(Cl)c2)n1")
80

# per-item lookup of Plant response rating (0 to 100 scale), Velvetleaf; items listed below
1. CCn1cc(C(=NNc2ccccc2)c2ccccc2)c(-c2cc(Cl)cc(Cl)c2)n1
2. O=C(c1ccccc1)c1cn(S(=O)(=O)CCl)nc1-c1cc(Cl)cc(Cl)c1

Result:
[70, 90]

====

Tested on: arrowleaf sida (Sida rhombifolia)
Assay: Test E pre-/postemergence greenhouse test, plant response rating 0-100
Type: in vivo
Details: Preemergence, 125 g ai/ha, scale 0 to 100
Readout Name: Arrowleaf Sida plant response rating
One number for each entry.

// below: answered compounds
>>> result_value("O=C(c1ccccc1)c1cn(S(=O)(=O)CCl)nc1-c1cc(Cl)cc(Cl)c1")
25
>>> result_value("C#CCn1cc(C(=O)c2ccccc2)c(-c2cc(Cl)cc(Cl)c2)n1")
90
>>> result_value("O=C(c1ccccc1)c1cn(CO)nc1-c1cc(Cl)cc(Cl)c1")
90

# input for lookup
Q: Tell me the measured Arrowleaf Sida plant response rating of O=C(c1ccccc1)c1cn(S(=O)(=O)CC(F)(F)F)nc1-c1cc(Cl)cc(Cl)c1 , please.
Result: 70

====

System: soybean (Glycine max)
Test: Test E pre-/postemergence greenhouse test, plant response rating 0-100
Type: in vivo
Settings: Postemergence, 62 g ai/ha; scale 0 to 100
For each record, write down the corresponding Plant response rating, Soybean.
Give bare numbers.

>>> result_value("C=CCn1cc(C(=O)c2ccccc2)c(-c2cc(Cl)cc(Cl)c2)n1 [Compound 60]")
0
>>> result_value("Fc1ccc(NN=C(c2ccccc2)c2c[nH]nc2-c2cc(Cl)cc(Cl)c2)cc1 [Compound 35]")
0
>>> result_value("O=Cn1cc(C(=O)c2ccccc2)c(-c2cc(Cl)cc(Cl)c2)n1 [Compound 28]")
0
>>> result_value("O=C(c1ccccc1)c1cn(S(=O)(=O)CCl)nc1-c1cc(Cl)cc(Cl)c1 [Compound 1]")
0

Q: Tell me the measured Plant response rating, Soybean of Fc1cccc(NN=C(c2ccccc2)c2c[nH]nc2-c2cc(Cl)cc(Cl)c2)c1 [Compound 58] , please.
Result: 0

====

System: woolly cupgrass (Eriochloa villosa)
Test: Test C postemergence greenhouse test, plant response rating 0-100
Format: in vivo
Conditions: 62 g ai/ha
Readout Name: Plant response rating (0 to 100), Cupgrass, Woolly

// below: answered molecules
>>> result_value("Clc1cc(Cl)cc(-c2n[nH]cc2C(=NNc2ccccc2Cl)c2ccccc2)c1")
0
>>> result_value("CCn1cc(C(=NN2CCCC2)c2ccccc2)c(-c2cc(Cl)cc(Cl)c2)n1")
5
>>> result_value("Cn1cc(C(=O)c2cccs2)c(-c2cc(Cl)cc(Cl)c2)n1")
0

# per-item lookup of Plant response rating (0 to 100), Cupgrass, Woolly; items listed below
1. C=CCn1cc(C(=O)c2ccccc2)c(-c2cc(Cl)cc(Cl)c2)n1
2. CCn1cc(C(=O)c2ccccc2)c(-c2cc(Cl)cc(Cl)c2)n1

Result:
[0, 5]

Q: Lab request: please report Plant response rating (0 to 100), Cupgrass, Woolly under test system woolly cupgrass (Eriochloa villosa) for CCn1cc(C(=O)c2cccs2)c(-c2cc(Cl)cc(Cl)c2)n1
Result: 5
